meta.source: ChEMBL document CHEMBL5724806

# assay.explanation: The drug is tested on Bacteroides xylanisolvens strain: HM 722 for biotransformation under anaerobic condition. The drug concentrations were measured over 6 timepoints collected between 0 and 12 hours of incubation by liquid-chromatography-coupled mass spectrometry (LC–MS)
# Format: ADME
# Design: dose 5 uM, timepoint 0, 1.5, 3, 6, 9, 12 hours
# test.parameters: 5 µM
recorded.metric: Bacterial Biotransformation

CO[C@H]1C[C@@H]2CC[C@@H](C)[C@@](O)(O2)C(=O)C(=O)N2CCCC[C@H]2C(=O)O[C@H]([C@H](C)C[C@@H]2CC[C@@H](OCCO)[C@H](OC)C2)CC(=O)[C@H](C)/C=C(\C)[C@@H](O)[C@@H](OC)C(=O)[C@H](C)C[C@H](C)/C=C/C=C/C=C/1C
Compound NOT metabolized
CO[C@H]1C[C@@H]2CC[C@@H](C)[C@@](O)(O2)C(=O)C(=O)N2CCCC[C@H]2C(=O)O[C@H]([C@H](C)C[C@@H]2CC[C@@H](O)[C@H](OC)C2)CC(=O)[C@H](C)/C=C(\C)[C@@H](O)[C@@H](OC)C(=O)[C@H](C)C[C@H](C)/C=C/C=C/C=C/1C
Compound NOT metabolized

====

# assay.explanation: The drug is tested on Streptococcus salivarius strain: DSM20560 for biotransformation under microaerobic condition. The drug concentrations were measured over 6 timepoints collected between 0 and 12 hours of incubation by liquid-chromatography-coupled mass spectrometry (LC–MS)
# Assay type: ADME
# Design: dose 5 uM, timepoint 0, 1.5, 3, 6, 9, 12 hours
# test.parameters: 5 µM
recorded.metric: Bacterial Biotransformation

C[C@]12C=CC(=O)C=C1CC[C@@H]1[C@@H]2[C@@H](O)C[C@@]2(C)[C@H]1CC[C@]2(O)C(=O)CO
Compound NOT metabolized
CO[C@H]1C[C@@H]2CC[C@@H](C)[C@@](O)(O2)C(=O)C(=O)N2CCCC[C@H]2C(=O)O[C@H]([C@H](C)C[C@@H]2CC[C@@H](O)[C@H](OC)C2)CC(=O)[C@H](C)/C=C(\C)[C@@H](O)[C@@H](OC)C(=O)[C@H](C)C[C@H](C)/C=C/C=C/C=C/1C
Compound NOT metabolized
NS(=O)(=O)c1cc(C(=O)O)c(NCc2ccco2)cc1Cl [FUROSEMIDE]
Compound NOT metabolized

====

# assay.explanation: The drug is tested on the gut metagenome community of T-02 with ENA study accession number: PRJEB31790 for biotransformation under microaerobic condition. The drug concentrations were measured over 7 timepoints collected between 0 and 12 hours of incubation by liquid-chromatography-coupled mass spectrometry (LC–MS)
# Format: ADME
# Design: dose 5 uM, timepoint 0, 0.75, 1.5, 3, 6, 9, 12 hours
# test.parameters: 5 µM
recorded.metric: Bacterial Biotransformation

Record excerpt, results attached:
C[C@]12CCC(=O)C=C1CC[C@@H]1[C@@H]2C(=O)C[C@@]2(C)[C@H]1CC[C@]2(O)C(=O)CO
Compound metabolized
CC(C)NCC(O)COc1ccc(CC(N)=O)cc1 (stereo unspecified)
Compound NOT metabolized
C[C@H]1C[C@H]2[C@@H]3CCC4=CC(=O)C=C[C@]4(C)[C@@]3(F)[C@@H](O)C[C@]2(C)[C@@]1(O)C(=O)CO
Compound metabolized
CO[C@H]1C[C@@H]2CC[C@@H](C)[C@@](O)(O2)C(=O)C(=O)N2CCCC[C@H]2C(=O)O[C@H]([C@H](C)C[C@@H]2CC[C@@H](OCCO)[C@H](OC)C2)CC(=O)[C@H](C)/C=C(\C)[C@@H](O)[C@@H](OC)C(=O)[C@H](C)C[C@H](C)/C=C/C=C/C=C/1C
Compound metabolized
C[C@]12CCC(=O)C=C1CC[C@@H]1[C@@H]2[C@@H](O)C[C@@]2(C)[C@H]1CC[C@]2(O)C(=O)CO [HYDROCORTISONE]
Compound metabolized

Field request: Bacterial Biotransformation | item: "COc1c(C)c2c(c(O)c1C/C=C(\C)CCC(=O)O)C(=O)OC2"
Compound NOT metabolized
